Known folding stability dG unfold of a selection of sequences
# Experimental protocol: folding stability dG unfold from chymotrypsin proteolysis; higher = more stable
Readout: folding stability dG unfold

INSERT INTO results (residue_codes, endpoint_value) VALUES
  ('SAGGSASVTTTVTLPNGEVVTITFDPANPTTATLSFPDGTTVTLSFSSPEEALARAIEELLAGKPLSAGGSA [r15_38_JUSTAS]', '2.01 kcal/mol'),
  ('SAGGSAGGSASLIVISPPGAPRTIPLEGLVEKGIPEREAAELLEKELGIEINLSEPGVIRAKSAGGSAGGSA [r18_7_JUSTAS]', '0.249 kcal/mol'),
  ('SAGGMKPGQPWHEIEVQREIDLPPGQISAEEIADLIAELFPGFRVEDFRIEFTGKKWRIDVTIYIPYSAGGS [r8_202_TrROS]', '3.49 kcal/mol'),
  ('SAGGSAGGSAGVRIPPGYLVRIKFPGNGEREIPIDTPEIEIPGIENVTIEVYPLKKGEPISAGGSAGGSAGG [r11_43_TrROS]', '0.553 kcal/mol'),
  ('SAGGSAGGSASVTVVPSPGPTTTVVTFSPDDTVTVTTHTVDPSAATSTPTTTTVSLSDPAAASAGGSAGGSA [r18_503_JUSTAS]', '1.44 kcal/mol'),
  ('SAMKIAKVTYEPVKVDGKELLLFKVEIVHSETGEKEEKTFLTEDPEDFIENLLKHPDIDIVEILEFKEGSAG [r14_464_TrMRF]', '3.43 kcal/mol'),
  ('MNIKVTSVLPDGTVVVTAEAPLPDGSSIRVTAARRGKDSYVLVTVNVYPTKVVADIKEVAPVSPGSPEEGGS [r1_53_TrMRF]', '3.3 kcal/mol');

This collection of values is drawn from the supplement of paper PMC12764529.
